# tested on: recombinant HIV-1 protease (Human immunodeficiency virus type 1 group M subtype B, UniProt P04585)
# Construct: recombinant HIV-1 protease (final concentration 2.18 nM) purchased from Bachem Bioscience; purchased Bachem Bioscience
# experiment summary: Enzymatic fluorometric (FRET) assay for determining the inhibition constant (Ki) against HIV protease
# Type: biochemical
# experimental context: fluorometric FRET assay, 31° C., pH 4.7, recombinant HIV-1 protease 2.18 nM, substrate 10 μM; read-out: Ki
value kind: pKi
By convention, pKi is the negative base-10 log of a molar concentration.

Worked cases, pKi given:
COc1ccc(OC)c(CCC(=O)NCCCC[C@@H](C(=O)O)N(CC(C)C)S(=O)(=O)c2ccc(N)cc2)c1    7.68
Cc1ccc(S(=O)(=O)N(CC(C)C)[C@@H](CCCCNC(=O)COc2ccccc2)C(=O)O)cc1    7.76

Now, please, on to the next molecule.
Inquiry: State its pKi: `COc1ccc(CCC(=O)NCCCC[C@@H](C(=O)O)N(CC(C)C)S(=O)(=O)c2ccc(N)cc2)cc1OC`
Reply text: 6.88
